Just for reference, paper PMC7581431 is where these values come from.

Tgt: T1, Lip-DVL2-PDZ (human, UniProt O14641 285-373)
T1 construct: PDZ domain of human DVL2, residues 285-373; also called DVL2 PDZ domain; wt DVL2 PDZ domain; source: E. coli BL21DE3 pRare2, purified (NiNTA, SEC)
T1 sequence (looked up): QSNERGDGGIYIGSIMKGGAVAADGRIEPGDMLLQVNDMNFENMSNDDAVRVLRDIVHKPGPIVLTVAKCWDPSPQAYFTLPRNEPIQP
Assay info: ITC; MicroCal iTC200, 15 mM Tris-HCl, 150 mM NaCl, pH 7.4; Lip-DVL2-PDZ or Lip-DVL2-PDZ-V334E (696 μM) injected into 17.2 μM RFP-NKD-EF
Reported conditions: both partners purified
Readout: Kd

IN: What value of measured Kd is listed for RFP-NKD1-EF (domain or fragment, human, UniProt Q969G9 110-190, looked up, EF-hand of human NKD1, residues 110-190; Dimer by SEC-MALS (expected RFP-NKD1-EF dimer, 71.8 kDa); also called RFP-NKD-EF; NKD1 EF-hand; source: E. coli BL21DE3 pRare2, purified (NiNTA, SEC)) EPCPGSKKQLKFEELQCDVSMEEDSRQEWTFTLYDFDNNGKVTREDITSLLHTIYEVVDSSVNHSPTSSKMLRVKLTVAPD ?
OUT: 3.2 µM
